Record form. Attribute: Emax. Fill in for each entry.
Tested On: recombinant human Meningioma Expressed Antigen 5 (MGEA5), also referred to as O-GlcNAcase (OGA) (Homo sapiens)
Construct: Full length OGA enzyme was purchased at OriGene (cat # TP322411); purchased OriGene TP322411
Protocol Notes: OGA biochemical assay: inhibition of FM-GlcNAc hydrolysis, fluorescence; protocol A (10 nM OGA, 1 h) or protocol B (2 nM OGA, 6 h)
Conditions: Enzymatic protocol B (2 nM OGA, 6 h)
Numbers only, in %.

Example entries and their recorded answers appear below.
Molecule: CC(=O)Nc1ncc(CN2CCC[C@H](Cc3cc(C)nc(F)c3)C2)s1
Unit Text: %
Emax: 99.2
//
Molecule: Cc1cc(CC2CCCN(C(C)c3ccc4nccnc4c3)C2)cc(C)n1 (racemic)
Unit Text: %
Emax: 101

# per-item lookup of Emax; items listed below
1. Cc1cc(N[C@@H]2CCCN(C(C)c3ccc4nccnc4c3)C2)cc(C)n1 (stereo partly drawn)
2. CC(=O)Nc1ncc(CN2CCCC(c3cc(C)nc(C)c3)C2)s1 (stereo not drawn) [compound 7]
3. CC(=O)Nc1ncc(CN2CC[C@H](Cc3cnc(C)c(C)c3)C2)s1
4. CC(=O)Nc1ncc(CN2CC[C@H](Cc3nccc(C)c3C)C2)s1

Reply:
1. 101
2. 99.3
3. 99.1
4. 102

* * *

Tested On: recombinant human Meningioma Expressed Antigen 5 (MGEA5), also referred to as O-GlcNAcase (OGA) (Homo sapiens, UniProt O60502)
Construct: Full length OGA enzyme was purchased at OriGene (cat # TP322411); purchased OriGene TP322411
Protocol Notes: OGA biochemical assay: inhibition of FM-GlcNAc hydrolysis, fluorescence; protocol A (10 nM OGA, 1 h) or protocol B (2 nM OGA, 6 h)
Conditions: Enzymatic protocol B (2 nM OGA, 6 h)
Attribute Measured: Emax (%)
Answers are plain numbers, in %.

Example entries and their recorded answers appear below.
Compound: CC(=O)Nc1ncc(CN2CCC(Cc3ccc(C)c(C)n3)C2)s1 (centres unmarked)
Emax [%]: 99.7
//
Compound: CC(=O)Nc1ncc(CN2CCC(COc3cc(C)nc(C)c3)C2)s1 (centres unmarked)
Emax [%]: 100
//
Compound: Cc1cc(C[C@H]2CCCN(Cc3ccc4c(c3)OCCO4)C2)cc(C)n1
Emax [%]: 102

# per-item lookup of Emax; items listed below
1. CC(=O)Nc1ncc(CN2CCC[C@@H](Oc3cc(C)nc(C)c3)C2)s1
2. Cc1cc([C@@H]2CCCN([C@@H](C)c3ccc4sc(C)nc4c3)C2)cc(C)n1

Reply:
1: 102; 2: 79.2

* * *

Record form. Attribute: Emax. Fill in for each entry.
Tested On: recombinant human Meningioma Expressed Antigen 5 (MGEA5), also referred to as O-GlcNAcase (OGA) (Homo sapiens)
Construct: Full length OGA enzyme was purchased at OriGene (cat # TP322411); purchased OriGene TP322411
Protocol Notes: OGA biochemical assay: inhibition of FM-GlcNAc hydrolysis, fluorescence; protocol A (10 nM OGA, 1 h) or protocol B (2 nM OGA, 6 h)
Conditions: Enzymatic protocol B (2 nM OGA, 6 h)
Give bare numbers, in %.

Example entries and their recorded answers appear below.
Compound: CC(=O)Nc1ncc(CN2CCCC(N(C)c3cc(C)nc(C)c3)C2)s1 (stereo not shown) [compound 32]
Unit Text: %
Emax: 101
--
Compound: CC(=O)Nc1ncc(CN2CCC[C@H](Nc3cc(C)nc(C)c3)C2)s1 [compound 9]
Unit Text: %
Emax: 103
--
Compound: CC(=O)Nc1ncc(CN2CCCC(Nc3ccnc(C)c3)C2)s1 (racemic) [compound 155]
Unit Text: %
Emax: 101

# per-item lookup of Emax; items listed below
1. CC(=O)Nc1ncc(CN2CC[C@H](Cc3cncnc3)C2)s1 [compound 55]
2. Cc1cc(OCC2(F)CCCN(Cc3ccc4nccnc4c3)C2)cc(C)n1 (racemic) [compound 157]
3. CC(=O)Nc1ncc(C(C)N2CCCC(COc3cc(C)nc(C)c3)C2)s1 (racemic) [compound 133]
4. CC(=O)Nc1ncc(CN2CCC[C@@H](Cc3cc(C)nc(C)c3)C2)s1 [compound 29]
5. CC(=O)Nc1ncc(CN2CC[C@H](Cc3cc(C)cc(C)n3)C2)s1 [compound 85]
6. CC(=O)Nc1ncc(CN2C[C@@H](Cc3cc(C)nc(C)c3)CC[C@H]2C)s1 (racemic) [compound 166]
7. Cc1cc(CC2CCCN(C(C)c3ccc4sc(C)nc4c3)C2)cc(C)n1 (single isomer, unassigned) [compound 118]

Reply:
1. 99.8
2. 69
3. 101
4. 102
5. 101
6. 99
7. 100

# per-item lookup of Emax; items listed below
1. CC(=O)Nc1ncc(CN2CC[C@H](Cc3cnc(C(=O)NC(C)(C)C)cn3)C2)s1 [compound 92]
2. CC(=O)Nc1ncc(CN2CC[C@H](Cc3ccc(C#N)cn3)C2)s1 [compound 46]
3. CC(=O)Nc1ncc(CN2C[C@@H](Cc3cc(C)nc(C)c3)CC[C@@H]2C)s1 (racemic) [compound 165]

Reply:
1: 99.7; 2: 101; 3: 100

* * *

Tested On: recombinant human Meningioma Expressed Antigen 5 (MGEA5), also referred to as O-GlcNAcase (OGA) (Homo sapiens, UniProt O60502)
Construct: Full length OGA enzyme was purchased at OriGene (cat # TP322411); purchased OriGene TP322411
Protocol Notes: OGA biochemical assay: inhibition of FM-GlcNAc hydrolysis, fluorescence; protocol A (10 nM OGA, 1 h) or protocol B (2 nM OGA, 6 h)
Conditions: Enzymatic protocol B (2 nM OGA, 6 h); read-out: Enzymatic hOGA; pIC50 (converted)
Record form. Attribute: IC50. Fill in for each entry.

Molecule: CC(=O)Nc1ncc(S(=O)(=O)N2CCC(c3ccnc(C)c3)C2)s1 (stereo not drawn) [compound 3]
IC50: > 10 µM
--
Molecule: Cc1cc(C[C@H]2CCN(C(C)c3nc4ccccc4[nH]3)C2)cc(C)n1 (mixture of isomers) [compound 78]
IC50: > 10 µM

Moving on to another molecule below.
Ask: Recorded IC50 of CC(=O)Nc1ncc(CN2CCC[C@H](Cc3cc(C)nc(C)c3)C2)n1C [compound 174] , please.
Reply: > 10 µM

* * *

Record form. Attribute: Enzymatic Emax (%). Fill in for each entry.
Tested On: recombinant human Meningioma Expressed Antigen 5 (MGEA5), also referred to as O-GlcNAcase (OGA) (Homo sapiens)
Construct: Full length OGA enzyme was purchased at OriGene (cat # TP322411); purchased OriGene TP322411
Sequence (O60502 1-916): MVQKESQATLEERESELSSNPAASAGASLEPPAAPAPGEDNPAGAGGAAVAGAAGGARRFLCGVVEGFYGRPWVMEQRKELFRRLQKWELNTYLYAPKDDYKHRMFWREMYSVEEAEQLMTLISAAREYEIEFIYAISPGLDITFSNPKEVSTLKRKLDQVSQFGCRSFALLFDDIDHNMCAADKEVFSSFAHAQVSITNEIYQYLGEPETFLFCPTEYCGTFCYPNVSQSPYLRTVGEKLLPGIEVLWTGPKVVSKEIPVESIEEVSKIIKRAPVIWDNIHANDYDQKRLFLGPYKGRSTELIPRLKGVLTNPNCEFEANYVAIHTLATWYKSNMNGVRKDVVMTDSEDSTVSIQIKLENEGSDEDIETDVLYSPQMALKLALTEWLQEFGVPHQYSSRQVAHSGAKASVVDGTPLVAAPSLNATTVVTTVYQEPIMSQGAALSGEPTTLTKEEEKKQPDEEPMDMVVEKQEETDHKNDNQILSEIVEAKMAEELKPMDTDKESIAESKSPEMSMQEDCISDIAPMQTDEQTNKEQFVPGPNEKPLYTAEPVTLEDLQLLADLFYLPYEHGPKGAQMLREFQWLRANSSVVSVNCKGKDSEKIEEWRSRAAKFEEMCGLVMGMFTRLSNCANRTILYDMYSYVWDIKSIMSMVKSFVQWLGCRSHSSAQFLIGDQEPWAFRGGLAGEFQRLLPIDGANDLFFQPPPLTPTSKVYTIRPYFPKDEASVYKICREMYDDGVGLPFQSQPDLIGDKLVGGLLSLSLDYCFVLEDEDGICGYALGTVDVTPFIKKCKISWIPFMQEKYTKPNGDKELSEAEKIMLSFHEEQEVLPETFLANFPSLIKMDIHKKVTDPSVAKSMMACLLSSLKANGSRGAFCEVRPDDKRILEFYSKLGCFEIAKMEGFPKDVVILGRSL
Protocol Notes: OGA biochemical assay: inhibition of FM-GlcNAc hydrolysis, fluorescence; protocol A (10 nM OGA, 1 h) or protocol B (2 nM OGA, 6 h)
Conditions: Enzymatic protocol B (2 nM OGA, 6 h)
Give bare numbers, in %.

Molecule: CC(=O)Nc1ncc(CN2CC[C@H](Cc3ccncc3C)C2)s1
Unit Text: %
Enzymatic Emax (%): 101
//
Molecule: Cc1cc(C[C@H]2CCN(Cc3ccc4sc(C)nc4c3)C2)cc(C)n1
Unit Text: %
Enzymatic Emax (%): 87.4

Ask: Recorded Enzymatic Emax (%) of COc1nccnc1CC1CCN(Cc2cnc(NC(C)=O)s2)C1 (stereo not drawn) , please.
Reply: 100.9
